Where do the numbers come from? From ChEMBL document CHEMBL3988442.

Tested on: Wolbachia pipientis
measurement_notes: Anti-Wolbachia Cell-Based Screen
Type: functional
Design: scale not given: in the data most compounds retested in dose-response had high values
assay_context: 5 µM
Screen size: about 48,000 compounds; about 13,000 (27%) showed an effect of 50% or more. Some of the results follow.
outcome_measure: Percent Effect (%)

>>> observed_value("COCC(O)CN1CC(C)(C)CN(C(=O)CCc2ccccc2)CC1=O (centres undefined)")
110.7
>>> observed_value("Cc1c(CNC(=O)c2cn(CCC3CCCCN3)nn2)cnn1C (centres undefined)")
10.08
>>> observed_value("Cc1ccc(CCNc2nccc(-c3cc(C(=O)O)ccn3)n2)o1")
-34.17
>>> observed_value("Cn1cccc1C(=O)N1C[C@@H]2CCN(c3cccnc3)C[C@@H]2C1.O=C(O)C(F)(F)F")
-18.75
>>> observed_value("Cn1ccnc1C(=O)N1CCC2(CCN2CC2CC2)C1.O=C(O)C(F)(F)F (centres undefined)")
-29.26
>>> observed_value("CNC(=O)C1(C)CCCN1Cc1cnn(C)c1C (centres undefined)")
106.7
>>> observed_value("CN1CCN(C(=O)CCc2ccccc2)Cc2cccnc21.O=C(O)C(F)(F)F")
-4.699
>>> observed_value("Cc1noc(C2CCN(C(=O)CN(C)c3ccc(Cl)cn3)CC2)n1")
-9.214
>>> observed_value("Cc1cccc(N2CCC3(CCCN3Cc3cnn(C)c3C)CC2)n1")
9.163
>>> observed_value("O=C(C1=CCCC1)N1CC[C@]2(C[C@H](OCc3cccnc3)CO2)C1.O=C(O)C(F)(F)F")
-2.821
>>> observed_value("CN(C)C(CNCc1nc(-c2ccsc2)no1)c1ccco1 (centres undefined)")
15.02
>>> observed_value("CC(C)N1[C@H](CN2CCCC2)C[C@@H]2CN(C(=O)c3ccoc3)CC[C@@H]21.O=C(O)C(F)(F)F.O=C(O)C(F)(F)F")
-8.643
>>> observed_value("CNC(=O)CN1CC[C@H]2CN(C(=O)c3ccc(C)cc3)C[C@H]2C1.O=C(O)C(F)(F)F")
117
>>> observed_value("CC(=O)N[C@@H]1CN(C(=O)c2ccoc2)C[C@H]1c1ccc(C)cc1")
0.232
>>> observed_value("Cc1nn(C)c2nc(N3CCC(C(O)Cc4ccccc4)CC3)sc12 (centres undefined)")
-11.76
>>> observed_value("CC(=O)N(C)CC(=O)NC(CC(C)C)c1cccs1 (centres undefined)")
5.598
>>> observed_value("Cc1cc(N2CCN(C(=O)c3cc(Cl)c[nH]3)CC2)nc(N)n1")
3.543
>>> observed_value("COc1nc(C)c(C(=O)N2CCC(C(O)Cc3ccccc3)CC2)s1 (centres undefined)")
114.7
>>> observed_value("COc1cc(C)sc1C(=O)NCCC(=O)N(C)c1ccccc1")
-9.675
>>> observed_value("Cc1ccc(C(=O)N2CCC3(CCN(c4ccsc4)C3=O)C2)cn1.O=C(O)C(F)(F)F (centres undefined)")
44.84
>>> observed_value("CCC(=O)N1CCC(c2ncncc2C)CC1")
105.8
>>> observed_value("O=C(N[C@@H]1C[C@H]2CC[C@@H]1C2)C1(Oc2ccc(Cl)cc2)CCNCC1")
5.083
>>> observed_value("CN(C)CCN(C)c1ccc(-c2nc(COc3ccccc3)no2)cn1")
-2.014
>>> observed_value("CCC(C)(NCC(N)=O)c1nccs1 (centres undefined)")
-7.734
>>> observed_value("CCN1CCC12CCN(C(=O)c1ccsc1)C2.O=C(O)C(F)(F)F (centres undefined)")
-5.276
>>> observed_value("Cc1oncc1C(=O)N1CCC(O)(CN2CCOCC2)C(C)(C)C1 (centres undefined)")
29.5
>>> observed_value("CC1N(C)C(=O)COC12CCN(C(=O)CCc1ccccc1)CC2 (centres undefined)")
0.4061
>>> observed_value("Cc1c(CN2CCCC2(C)C(=O)NC2CCCC2)cnn1C (centres undefined)")
156.7
>>> observed_value("Cc1cc(=O)c(C(=O)N2CCC(C(O)Cc3ccccc3)CC2)c(C)[nH]1 (centres undefined)")
97.46
>>> observed_value("COc1cccc(-n2cc(-c3ccnc(N[C@@H](CO)C(C)C)n3)cn2)c1")
-10.41
>>> observed_value("COc1nc(C)c(C(=O)N2CCN(c3ncccc3C)CC2)s1")
-23.23
>>> observed_value("CC(C)NS(=O)(=O)c1cc(C(=O)O)cc(-c2ccc3c(c2)OCCO3)c1")
-21.29
>>> observed_value("CCn1cc(CN2CCCN(C(=O)C3(C)CCOCC3)CC2)cn1")
8.44
>>> observed_value("CC(C)CC(O)C1CCN(C(=O)c2ccc(C(C)C)[nH]c2=O)CC1 (centres undefined)")
-16.76
